src = patent US11666559B2

# Tested on: HIV-2
# Cond: 03PTHCC19, CCR5 tropic HIV-2 isolate; TZM-bl cells; wa = without antiviral activity

Compound | Assayed System | IC50 (nM)
CC1(C)S[C@H]2N(C(=O)[C@]23CC=C(C(=O)OCc2ccccc2)[C@@H]3C(=O)c2ccccc2)[C@H]1C(=O)OC(c1ccccc1)c1ccccc1 [BSS-730A] | HIV-2 | 5
COC(=O)C1C(C(=O)OCc2ccccc2)=CCC12C(=O)N1[C@@H](C(=O)OC(c3ccccc3)c3ccccc3)C(C)(C)S[C@@H]12 (stereo partly drawn) [BSS-722A] | HIV-2 | 510

----------
# Tested on: TZM-bl cells
# Assay Overview: Cellular viability assay (alamarBlue) in TZM-bl cells
Measured CC50 by item

Compound | CC50 (µM)
CC(=O)C1N=NC(c2ccccc2)C12C(=O)N1[C@@H](C(=O)OC(c3ccccc3)c3ccccc3)C(C)(C)S[C@@H]12 (stereo partly shown) [BSS-974S] | 91.9
CCOC(=O)C1=NNC2(C1)C(=O)N1C(C(=O)O)C(C)(C)SC12 (stereo not shown) | 152
CC1(C)S[C@H]2N(C(=O)C23C(C(=O)c2ccccc2)N=NC3c2ccccc2)[C@H]1C(=O)OC(c1ccccc1)c1ccccc1 (stereo partly shown) [BSS-971S] | 82
CC(=O)C1C(C(=O)OCc2ccccc2)=CCC12C(=O)N1[C@@H](C(=O)OC(c3ccccc3)c3ccccc3)C(C)(C)S[C@@H]12 (stereo partly shown) [BSS-793B] | 47.7
